# target or system: Francisella tularensis GyrB (ATP binding domain) (Francisella tularensis subsp. tularensis, UniProt Q5NHE7)
# Sequence (Q5NHE7 1-805): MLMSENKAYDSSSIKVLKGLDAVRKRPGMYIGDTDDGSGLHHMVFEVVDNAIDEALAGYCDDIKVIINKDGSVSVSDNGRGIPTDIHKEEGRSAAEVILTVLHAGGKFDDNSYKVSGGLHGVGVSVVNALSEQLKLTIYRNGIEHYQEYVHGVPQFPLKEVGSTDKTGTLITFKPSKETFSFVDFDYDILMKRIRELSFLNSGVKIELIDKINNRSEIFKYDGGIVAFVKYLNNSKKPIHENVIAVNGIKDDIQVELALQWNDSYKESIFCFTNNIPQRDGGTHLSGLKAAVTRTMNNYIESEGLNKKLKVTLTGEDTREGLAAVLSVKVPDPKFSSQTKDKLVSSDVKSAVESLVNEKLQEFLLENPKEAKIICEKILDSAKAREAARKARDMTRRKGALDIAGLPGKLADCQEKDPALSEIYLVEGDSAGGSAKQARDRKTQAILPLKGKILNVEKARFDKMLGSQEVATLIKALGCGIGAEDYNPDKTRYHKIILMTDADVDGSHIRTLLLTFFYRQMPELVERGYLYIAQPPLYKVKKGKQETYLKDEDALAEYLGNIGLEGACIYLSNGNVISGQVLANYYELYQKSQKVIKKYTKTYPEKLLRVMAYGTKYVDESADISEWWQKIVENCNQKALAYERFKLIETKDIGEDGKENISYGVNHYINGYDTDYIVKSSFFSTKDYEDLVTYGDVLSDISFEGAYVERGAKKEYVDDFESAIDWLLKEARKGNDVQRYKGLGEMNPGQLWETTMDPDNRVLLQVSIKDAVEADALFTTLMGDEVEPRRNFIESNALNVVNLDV
Listing of entries alongside the reported pIC50.
// field semantics: pIC50 = negative decimal log of concentration (mol/L)

Some compounds with known pIC50 results, for comparison:
CC(=O)[C@]1(O)Cc2c(O)c3c(c(O)c2[C@@H](O[C@H]2C[C@H](N)[C@H](O)[C@H](C)O2)C1)C(=O)c1ccccc1C3=O; 5.80
COc1cccc2c1C(=O)c1c(O)c3c(c(O)c1C2=O)C[C@@](O)(C(=O)CO)C[C@@H]3O[C@H]1C[C@H](N)[C@H](O)[C@H](C)O1; 6.51
CCNC(=O)Nc1nc2cc(-c3cccnc3)cc(-c3ccccn3)c2[nH]1; 6.41

// query Please report the measured pIC50 for `COc1cccc2c1C(=O)c1c(O)c3c(c(O)c1C2=O)C[C@@](O)(C(C)=O)C[C@@H]3O[C@H]1C[C@H](N)[C@H](O)[C@H](C)O1`
// result 5.84

// query Give reported pIC50 value for COc1cccc2c1C(=O)c1c(O)c3c(c(O)c1C2=O)C[C@@](O)(C(=O)CO)C[C@@H]3O[C@H]1C[C@H](N)[C@@H](O)[C@H](C)O1 [epirubicin]
// result 5.90

---

# target or system: E. coli gyrase A2B2 heterotetramer (Escherichia coli, UniProt P0AES6)
# assay: Gyrase activity
# Format: biochemical
# setup conditions: 50 μM compound, 0.5 μg relaxed pHOT1 DNA, 1 h 37 °C
measured metric: inhibition of supercoiling of relaxed DNA

CC(=O)[C@]1(O)Cc2c(O)c3c(c(O)c2[C@@H](O[C@H]2C[C@H](N)[C@H](O)[C@H](C)O2)C1)C(=O)c1ccccc1C3=O; less clear
COc1cccc2c1C(=O)c1c(O)c3c(c(O)c1C2=O)C[C@@](O)(C(C)=O)C[C@@H]3O[C@H]1C[C@H](N)[C@H](O)[C@H](C)O1; less clear

Value source: paper PMC3176662
